target: KAT-6A (Homo sapiens (Human)); experiment: KAT-6A biochemical inhibition assay (SAMDI mass spectrometry)
Sequence (Q92794 other isoform, or with tags, fused parts or gaps): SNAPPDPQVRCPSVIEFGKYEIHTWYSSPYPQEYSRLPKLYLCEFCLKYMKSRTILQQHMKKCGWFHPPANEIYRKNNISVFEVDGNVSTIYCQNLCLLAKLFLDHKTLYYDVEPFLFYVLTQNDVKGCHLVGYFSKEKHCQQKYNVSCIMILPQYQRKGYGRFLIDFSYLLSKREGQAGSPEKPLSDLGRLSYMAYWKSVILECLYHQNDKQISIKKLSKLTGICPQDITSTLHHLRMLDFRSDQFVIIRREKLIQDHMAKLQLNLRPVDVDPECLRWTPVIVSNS
pIC50: −log10 of the molar value.
assay.metric: pIC50

1. CCn1c(-c2cc(Cl)c(F)c(C(=O)NNS(=O)(=O)C3CCCCC3)c2)cnc1C = < 4.00
2. Cn1cnc(-c2cc(Cl)c(F)c(C(=O)NNS(=O)(=O)C[C@H]3CCC[C@H](OCc4ccccc4)C3)c2)c1 = > 5.00
3. Cn1cnc(-c2cc(Cl)c(F)c(C(=O)NNS(=O)(=O)CC3CCCC(NC(=O)C4CCC4)C3)c2)c1 (stereo not shown) = > 5.00
4. Cn1cnc(-c2cc(Cl)c(F)c(C(=O)NNS(=O)(=O)c3cccc(O)c3F)c2)c1 = > 5.00
5. Cn1cc(-c2cc(Cl)c(F)c(C(=O)NNS(=O)(=O)C3CCOCC3)c2)nc1Cl = 4.30 to 5.00
6. Cn1cnc(-c2cc(Cl)c(F)c(C(=O)NNS(=O)(=O)c3cccc(O)n3)c2)c1 = > 5.00
7. Cc1ncc(-c2cc(Cl)c(F)c(C(=O)NNS(=O)(=O)C3CCOCC3)c2)n1C = < 4.00
